Molecular target: NADPH oxidase 5 (Homo sapiens)
Assay: NOX5-dependent H2O2 signal modulators, primary screen, NOX inhibitor project, cell-based, HEK293-NOX5, Amplex Red fluorescence (AID 1161)
Conditions: HEK293-NOX5, ionomycin, 45 min, higher = more signal
READOUT_TYPE: z-score

COCCOC(=O)N1C(=O)[C@@]2(c3cc(C#CC4(O)CCCCCC4)ccc31)[C@H](C(=O)N1CCc3cc(OC)c(OC)cc3C1)[C@H]1C(=O)O[C@H](c3ccccc3)[C@H](c3ccccc3)N1[C@@H]2c1ccc(O)cc1 = 0.725
O=C1O[C@@H](c2ccccc2)[C@@H](c2ccccc2)N2[C@@H](c3ccc(OCCO)cc3)[C@]3(C(=O)Nc4ccc(C#CCCO)cc43)[C@@H](C(=O)Nc3nc4ccccc4s3)[C@H]12 = 1.52
Cc1ccc(S[C@]2(C(=O)NCCN3CCOCC3)CC(=O)N(C3CCCCC3)[C@@H]2c2ccc(CO)cc2I)cc1 = 2.6
COc1ccc(NN2C(C(O)c3ccc(OC)cc3)C=CC3C(=O)N(C4CCCCC4)C(=O)C32)cc1 (centres undefined) = -2.54
O=C1NC(=O)C2C1C=CC(C(O)c1cccc(O)c1)N2Nc1ccc(Cl)cc1Cl (centres undefined) = -3.11
COCCOC(=O)N1C(=O)[C@@]2(c3cc(C#CCCO)ccc31)[C@H](C(=O)N1CCN(c3ncccn3)CC1)[C@H]1C(=O)O[C@H](c3ccccc3)[C@H](c3ccccc3)N1[C@@H]2c1ccc(O)cc1 = 1.29
CO[C@H]1O[C@H](CO)[C@@H](OC(=O)Nc2ccc(C(F)(F)F)cc2)[C@H](OC(=O)Nc2ccccc2-c2ccccc2)[C@@H]1OC(=O)Nc1ccccc1-c1ccccc1 = -1.23
[N-]=[N+]=NCc1ccccc1[C@@H]1OC(c2ccc(OCCCO)cc2)=N[C@]1(Cc1ccccc1)C(=O)NCc1ccccc1 = 0.85
CCOC(=O)C[C@H]1[C@H](OC(=O)Cc2ccc3c(c2)OCO3)[C@@H](NC(=O)c2ccccc2)c2cc(OCCCO)ccc2N1C(=O)Cc1ccc(OC)cc1 = -1.1
COCC(=C=CC[C@@H](O)c1ccc(OCCO)cc1)C[C@@H](O)COCc1ccccc1 = -2.03
CC(=O)NCCCC[C@@H]1NC(=O)[C@@H]2C[C@H](C(=O)NCCCCCC[N+](C)(C)C)[C@H](c3ccc(O)cc3)N2C1=O = 0.139
COc1ccc(CCNC(=O)[C@@]2(Sc3ccc(C)cc3)CC(=O)N(C(C)C)[C@@H]2c2ccc(CO)cc2)cc1 = -2.03
CO[C@H]1O[C@H](CO)[C@@H](OC(=O)Nc2ccccc2)[C@@H]2OC(=O)[C@H](Cc3ccccc3)C/C=C/C[C@@H](Cc3ccccc3)C(=O)O[C@@H]12 = -1.57
CO[C@H]1O[C@H](CO)[C@@H](OC(=O)Nc2ccc3c(c2)OCO3)[C@@H]2OC(=O)[C@@H](Cc3ccccc3)C/C=C/C[C@H](Cc3ccccc3)C(=O)O[C@@H]12 = -1.47
COCCOC(=O)N1C(=O)[C@@]2(c3cc(C#Cc4ccc(OC)cc4)ccc31)[C@H](C(=O)Nc1nc3ccccc3s1)[C@H]1C(=O)O[C@H](c3ccccc3)[C@H](c3ccccc3)N1[C@@H]2c1ccccc1OCCO = 1.45
CC(C)C[C@@H]1NC(=O)[C@@H]2C[C@H](C(=O)O)[C@H](c3ccc(O)cc3)N2C1=O = -0.107
COc1cc2c(cc1O)C(C1CC1)N(Cc1ccc([N+](=O)[O-])o1)CC2 (centres undefined) = -3.45
C[C@H]1C2[C@H](Cc3ccccc3)NC(=O)[C@]23C(=O)NCC(=O)N2CCC[C@H]2C(=O)NC/C=C\C/C=C/C3[C@@H]2O[C@]12C (some centres undefined) = 0.649
COC(=O)c1c(CC[C@@H](CO)NC(=O)N[C@@H](Cc2ccccc2)Cn2cc(-c3cncn3C)nn2)oc(C(C)=O)c1C(=O)OC = -3.3
